- measured.target: Sigma non-opioid intracellular receptor 1 (Cavia porcellus, UniProt Q60492)
- Sequence (Q60492 whole entry): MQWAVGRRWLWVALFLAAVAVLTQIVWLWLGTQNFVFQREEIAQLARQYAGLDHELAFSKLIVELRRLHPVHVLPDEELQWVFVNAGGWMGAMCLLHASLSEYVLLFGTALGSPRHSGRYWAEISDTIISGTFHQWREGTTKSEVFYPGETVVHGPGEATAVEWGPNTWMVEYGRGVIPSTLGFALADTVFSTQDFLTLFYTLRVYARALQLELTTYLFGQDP
- test: Displacement of [3H](+)-Pentazocine from sigma 1 receptor in guinea pig brain membranes after 120 mins by scintillation counting analysis
Quick reference for log10(Ki) among some molecules
Please keep in mind that the values are log10 of Ki expressed in nM.

Example molecules with recorded log10(Ki):
O[C@@H]1C[C@H]2CN(CC3CCCCC3)[C@@H]1CN2Cc1ccccc1	0.84
O[C@H]1C[C@@H]2CN(CC3CCCCC3)[C@H]1CN2Cc1ccccc1	0.76

GET /value?item= `O[C@H]1C[C@H]2CN(CC3CCCCC3)[C@@H]1CN2Cc1cccc2ccccc12` &field=log10(Ki) returns 0.90

GET /value?item= `O[C@H]1C[C@@H]2CN(CC3CCCCC3)[C@H]1CN2Cc1cccc2ccccc12` &field=log10(Ki) returns -0.30

GET /value?item= `O[C@@H]1C[C@H]2CN(CC3CCCCC3)[C@@H]1CN2Cc1ccc(-c2ccccc2)cc1` &field=log10(Ki) returns 1.36

GET /value?item= `O[C@@H]1C[C@@H]2CN(CC3CCCCC3)[C@H]1CN2Cc1cccc2ccccc12` &field=log10(Ki) returns 1.15

GET /value?item= `O[C@H]1C[C@H]2CN(CC3CCCCC3)[C@@H]1CN2Cc1ccc(-c2ccccc2)cc1` &field=log10(Ki) returns 0.94

GET /value?item= `O[C@@H]1C[C@@H]2CN(CC3CCCCC3)[C@H]1CN2Cc1ccc(-c2ccccc2)cc1` &field=log10(Ki) returns 1.04

GET /value?item= `O[C@H]1CC[C@H]2CN(CC3CCCCC3)[C@@H]1CN2Cc1ccccc1` &field=log10(Ki) returns 0.78

###

Quick reference for Activity among some molecules
- System: A-427
- test: Induction of apoptosis in human A427 cells assessed as early apoptotic cells level at 2 times cytotoxic IC50 incubated for 48 hrs by annexin V-FITC and propidium iodide staining based flow cytometry (reference value: 17.3 +/- 1.8%)
- Type: functional
Give the value in % but do not write % after it.

O[C@@H]1C[C@@H]2CN(CC3CCCCC3)[C@H]1CN2Cc1cccc2ccccc12	33.3
O[C@@H]1C[C@@H]2CN(CC3CCCCC3)[C@H]1CN2Cc1ccc(-c2ccccc2)cc1	56.4
O[C@@H]1C[C@@H]2CN(CC3CCCCC3)[C@H]1CN2Cc1ccccc1	32.6

Please find the next molecule below.
GET /value?item= `O[C@H]1C[C@@H]2CN(CC3CCCCC3)[C@H]1CN2Cc1cccc2ccccc12` &field=Activity returns 48.9

###

- measured.target: Sigma non-opioid intracellular receptor 1 (Homo sapiens)
- Sequence (Q99720 whole entry): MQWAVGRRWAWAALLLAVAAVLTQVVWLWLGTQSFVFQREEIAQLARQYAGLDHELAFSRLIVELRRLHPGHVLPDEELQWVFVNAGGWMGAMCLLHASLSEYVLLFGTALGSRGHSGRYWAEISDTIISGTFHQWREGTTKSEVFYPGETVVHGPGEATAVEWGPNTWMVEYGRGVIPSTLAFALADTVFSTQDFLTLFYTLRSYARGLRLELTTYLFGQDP
- test: Displacement of [3H](+)-Pentazocine from sigma 1 receptor in human RPMI8226 cell membranes
measurement.kind: pKi
// pKi here means minus log10 of the molar concentration (mol/L)

O[C@@H]1C[C@@H]2CN(CC3CCCCC3)[C@H]1CN2Cc1ccccc1	8.55

GET /value?item= `O[C@H]1C[C@@H]2CN(CC3CCCCC3)[C@H]1CN2Cc1cccc2ccccc12` &field=pKi returns 8.22

GET /value?item= `O[C@@H]1CC[C@H]2CN(CC3CCCCC3)[C@@H]1CN2Cc1ccccc1` &field=pKi returns 8.66

GET /value?item= `O[C@H]1C[C@@H]2CN(CC3CCCCC3)[C@H]1CN2Cc1ccccc1` &field=pKi returns 8.80

GET /value?item= `O[C@@H]1C[C@@H]2CN(CC3CCCCC3)[C@H]1CN2Cc1cccc2ccccc12` &field=pKi returns 7.42

GET /value?item= `O[C@H]1C[C@H]2CN(CC3CCCCC3)[C@@H]1CN2Cc1ccccc1` &field=pKi returns 8.49
